assay-summary: NCI Yeast Anticancer Drug Screen. Data for the mlh1 rad18 strain (AID 175)
condition: S. cerevisiae mlh1 rad18 strain growth inhibition, hits give high values; at 50.0 µM unless noted
Description: Growth inhibition of yeast strains with defined genetic alterations is measured as a screen for potential anti-cancer activity. Selected strains with alterations in DNA damage repair or cell cycle control were exposed to compounds and growth inhibition was measured relative to vehicle treated controls. The strain used in this assay is mlh1 rad18
The panel holds about 79,000 compounds, 15% with a hit somewhere; the sample as a whole holds those more often.
measurement-type: growth inhibition (%)

* O=S(=O)(O)c1cc(O)c(S(=O)(=O)O)cc1O | -8.6
* Cc1ccc(N2CC(=O)N3CCCC(C)N3C(=O)C2)cc1 (centres undefined) | 10.4
* CC(N1CCS(=O)(=O)CC1)P(=O)(O)O (centres undefined) | 2.3
* C=C1N(c2cc3ccccc3o2)C(=O)OC12CCCCC2 | 18.9
* C=C(C)[C@H]1CC(=O)[C@@]2(C)C[C@H]3O[C@]3(C)CC/C=C(\C)CC[C@H]12 | 51.5
* COc1ccc(/C=C2\CNC/C(=C\c3ccc(OC)cc3)C2=O)cc1 | 34.1
* CN(C)c1ccc(C=Nc2c(N)n(C)c(=O)n(C)c2=O)cc1 | -2.9
* O=C1NCCN1/N=C/c1ccc([N+](=O)[O-])o1 | 25.9
* CC(=O)c1c(C)cc2cc(C)cc(O)c2c1O | 29.9
* CCN(CC)c1ccc2cc(C(=O)NCc3ccccc3)c(=N)oc2c1 | 7.35
* COc1ccc(/C=C2\C(=O)Nc3ccccc32)cc1OC | -4.4
* Cc1ccc(NC(=O)CC/C(CC(=O)C(C)(C)C)=N/NC(=O)c2cc3ccccc3cc2O)cc1C | 14.8
* CC(C)N1C(=O)NC2C1NC(=O)N2C(C)C (centres undefined) (tested in a mixture with another compound) | -3.05
* N#Cc1ccc(CC(=O)c2ccccc2)cc1 | 3.15
* CCCCCCCCCCCCCCCCCCc1ccc(O)cc1O | -5.2
* COc1ccccc1OC(=O)c1ccccc1 | -5.35
* Cc1ccc2nc(NC(=O)C(=O)C(C#N)c3nc4ccccc4s3)sc2c1 (centres undefined) | 19.2
* COc1ccc2ncccc2c1[N+](=O)[O-] | -18.6
* COC1OC2COc3ccccc3OC2C2C1N2C(N)=O (centres undefined) | 3.8
* CCn1nc(C)c2c1C(=O)NC(C)C(=O)N2 (centres undefined) | -22.4
* CC/C(=N/NC(N)=O)c1ccc(C)cc1 | -8.9
* N#Cc1sc2c(c1OC(=O)c1cccs1)c(=O)n(-c1ccccc1)c(=S)n2-c1ccccc1 | 15.2
* COc1ccc(C2(O)OCC(COc3cc(C)c(Cl)c(C)c3)O2)cc1OC (centres undefined) | 3.45
* Cc1cccc(/C=N/NC(=S)NC(C)(C)C)n1 | -27.1

----------
assay-summary: NCI Yeast Anticancer Drug Screen. Data for the rad50 strain (AID 155);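 note: 0% = growth of vehicle-only cultures of the same strain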
condition: S. cerevisiae rad50 strain growth inhibition, hits give high values; at 50.0 µM unless noted
The panel holds about 79,000 compounds, 15% with a hit somewhere; the sample as a whole holds those more often.
The entries below come with measured growth inhibition values attached.
measurement-type: growth inhibition (%)

• O=C(O)CS(=O)c1ccc2c3c(cccc13)C(=O)c1ccccc1-2 (stereo unspecified) = 14.7
• N#CC1(c2ccccc2)CCC1 = 4.85
• Cc1[nH]c2ccccc2c1/C=C/c1c[nH]c2ccccc12 = 22
• NC(Cc1ccc2nc3c4ccccc4c(=O)cc-3oc2c1)C(=O)O (stereo unspecified) = -23.4
• COCNC(=S)c1ccc(C(N)=O)nc1C(=O)NC(C)(C)C = 15.8
• CCN(CC)CCCC(C)Nc1ncnc2ccccc12 (stereo unspecified) = 2.2

----------
assay-summary: NCI Yeast Anticancer Drug Screen. Data for the sgs1 mgt1 strain (AID 161);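 note: 0% = growth of cultures given vehicle only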
condition: S. cerevisiae sgs1 mgt1 strain; at 50.0 µM unless noted
Description: Growth inhibition of yeast strains with defined genetic alterations is measured as a screen for potential anti-cancer activity. Selected strains with alterations in DNA damage repair or cell cycle control were exposed to compounds and growth inhibition was measured relative to vehicle treated controls. The strain used in this assay is sgs1 mgt1
About 79,000 compounds went through this panel and 15% of them were active in at least one assay; those are over-represented in the sample as a whole. Activity calls are given as the source filed them. Cut-off read from the data, not from the text of the source: active = growth inhibition above about 70%; inactive = the rest.
Classes used: active, inactive

- Cc1ccc(C(=O)NNC(=O)c2ccc(C)cc2)cc1: inactive
- CCCCOP(=O)(Nc1ccc([N+](=O)[O-])cc1)OCCCC: active
- CN(C)c1ccc(C(=O)Cc2ccc3ccccc3n2)cc1: active
- O=C1C=CC(=Nc2ccc3c(c2)-c2ccccc2C3)O1: inactive
- CCC12C=CCN3CC[C@@]4(c5cc([C@@]6(C(=O)OC)C[C@@H]7CN(CCc8c6[nH]c6ccccc86)C[C@](O)(CC)C7)c(OC)cc5N(C)[C@H]4[C@@](O)(C(=O)NCCCCCCCCCCCC(=O)O)[C@@H]1O)C32 (stereo partly drawn): inactive
- Cc1ccc(N2CC(=O)N3CCCC(C)N3C(=O)C2)cc1 (stereo not drawn): inactive
- CCN(CC)c1ccc(C(c2ccc(N(CC)CC)cc2Cl)c2cccc3ccccc23)c(Cl)c1: inactive
- O=C1/C(=C/c2cccc([N+](=O)[O-])c2)Cc2ccccc21: inactive
- CN1C(C)(C)CC(=O)C(Br)C1(C)C (stereo not drawn): inactive
- CCOC(=O)CON=c1c2ccccc2ccc2ccccc12: inactive
- Cc1ccc2nc(Sc3c([N+](=O)[O-])ncn3C)[nH]c2c1: inactive
- CCOC(=O)C(=O)Nc1cc(C)no1: inactive
- COc1ccc(NC(=O)Nc2ccc(F)cc2)c(OC)c1: inactive
- [N-]=[N+]=CC(=O)CCC(=O)N(c1ccccc1)c1ccccc1: inactive
- CCN(CC)CCCC(C)Nc1cc(OC)c2nc(C)ccc2c1OC (stereo not drawn): inactive
- COCN(CCc1ccccc1)CCN(C)C: inactive
- N#Cc1ccc2c(c1)-c1cc(C#N)ccc1C2c1ccccc1: inactive
- Nc1nc2cc3nc(N)c(N)nc3cc2nc1N: inactive
- CCCCCCCC[Si](c1ccccc1)(c1ccccc1)c1ccccc1: inactive
- COC(=O)CCn1cnc2c(SC)ncnc21: inactive
- CCOC(=O)CNC(=O)C(CCC(=O)N(C)O)NC(=O)CCC(N)C(=O)O (stereo not drawn): inactive
- CC(CC(=O)Nc1ccccc1CC(c1c[nH]c2ccccc12)c1c[nH]c2ccccc12)C(=O)O (stereo not drawn): inactive
- OCCNc1ncnc2c1ncn2C1OC(CO)C(O)C1O (stereo not drawn): inactive
- CC1(c2nc3ccccc3[nH]2)CCC(C(N)=O)C(C)(C)O1 (stereo not drawn): inactive
- COC(=O)CSSC(C)C: inactive
- COC(=O)CCc1ccco1: inactive
- O=C(O)CCNc1ccc(Cl)cc1[N+](=O)[O-]: inactive
- O=C(c1ccc(Cl)cc1)N1CCC(CCCc2ccccc2)CC1: inactive
- O=C(N/N=C/c1ccc2c(c1)OCO2)c1ccccc1: inactive
- CC(C)(O)C[N+](=O)[O-]: inactive
- Cc1ccc2c(c1)C1(c3ccc(Cl)cc3Cl)Oc3ccc(C)cc3C(c3ccc(Cl)cc3Cl)(O2)O1: inactive
- CCOC(=O)C12CCCC1(O)N(NC(N)=O)C(C)=C2C(=O)OC (stereo not drawn): inactive
- COc1cccc(C)c1O: inactive
- CCc1ccc(NC(=O)c2ccc(Cl)cc2Cl)cc1: inactive
- O=C1N(C2CCCCC2)C(/C=C/c2ccccc2)C1(c1ccccc1)c1ccccc1 (stereo not drawn): inactive
- CC(O)CNc1nc(N)[nH]c(=O)c1[N+](=O)[O-] (stereo not drawn): inactive
- O=C1c2ccccc2C(=O)N1CCS(=O)(=O)O: inactive
- NC(=O)c1cncn1C1OCC(O)C(O)C1O (stereo not drawn): inactive
- Cc1c(Cl)cc(Cl)c2c1C(=O)CC(C)O2 (stereo not drawn): inactive
- O=C(c1ccccc1)c1cccc(C(=O)c2ccccc2)c1: inactive
- CCCn1c(C)nc2c([N+](=O)[O-])cc(C)cc21: inactive
- ClCc1ccc(OCc2ccccc2)cc1: inactive
- CC(=O)N(c1nc2ccccc2s1)N1C(=O)c2ccccc2C1=O: inactive
- O=C(C[n+]1ccccc1CO)c1ccc(-c2ccccc2)cc1: inactive
- O=c1c2ccccc2oc2c(Cl)cc(Cl)cc12: inactive
- O=S1(=O)OCCOS(=O)(=O)C1C1c2ccccc2-c2ccccc21: inactive
- Cc1nc(Nc2cccc(Cl)c2)c2cnn(-c3ccc(Cl)cc3)c2n1: inactive
- CC(=O)c1cccc(OC(=O)Nc2ccccc2)c1: inactive

----------
assay-summary: NCI Yeast Anticancer Drug Screen. Data for the mec2-1 strain (AID 157)
condition: S. cerevisiae mec2-1 strain; at 50.0 µM unless noted
This is part of a sample that, as a whole, favours compounds with a hit. Of some 79,000 tested, about 15% had one in any assay. The source made the active and inactive calls. Cut-off read from the data, not from the text of the source: active = growth inhibition above about 70%; inactive = the rest.
Classes used: active, inactive

• COc1ccc(/C=C2/C/C(=C/c3ccc(OC)cc3)C2=O)cc1 = inactive
• OCc1ccc(Cl)c(Cl)c1 = inactive
• COc1ccc(C2S/C(=C\c3ccc(OC)cc3OC)C(=O)N2NC(=O)Cc2ccccc2)cc1 (stereo not given) = inactive
• O=c1[nH]n(Cc2ccccc2CCl)c2ccc([N+](=O)[O-])cc12 = inactive
• O=S(=O)(O)C(I)S(=O)(=O)O = inactive
• CC(CC(=O)Nc1ccccc1CC(c1c[nH]c2ccccc12)c1c[nH]c2ccccc12)C(=O)O (stereo not given) = inactive
• CC(=O)Nc1cccc(OC(=O)Nc2ccc(F)c(Cl)c2)c1 = inactive
• Nc1ncnc2c1ccn2COCCO = inactive
• CC(C)NC(=O)c1ccc(Cl)cc1Cl = inactive
• O=C(Cc1ccccc1)c1ccccc1C(=O)NCc1ccncc1 = inactive
• Nc1ncc(C(=O)O)s1 = inactive
• CNC(=O)Nc1cccc(C(=O)O)c1 = inactive
• CCCn1c(C)nc2c([N+](=O)[O-])cc(C)cc21 = inactive
• CC1CC(OCCO)CC(C)(C)C1 (stereo not given) = inactive
• CC1CC(C)OC(c2ccc(Cl)cc2)O1 (stereo not given) = inactive
• O=[N+]([O-])c1cc(Cl)ccc1S(=O)(=O)N1CCCc2cc(Cl)ccc21 = inactive
• N#Cc1cc2c(N)ncnc2nc1N1CCCC1 = inactive
• CC(=O)OC/C(=C/C#N)C1CCC2C3CC=C4CC(OC(C)=O)CCC4(C)C3CCC12C (stereo not given) = inactive
• CCOC(=O)CON=c1c2ccccc2ccc2ccccc12 = inactive
• Cc1ccc(C)c(Nc2c(C)ccc(C)c2C(=O)O)c1 = inactive
• Cc1cc2ccccc2c(N=Cc2cc(Br)cc(Br)c2O)c1C#N = active
• O=C(N[C@@H](CSSC[C@H](NC(=O)OCc1ccccc1)C(=O)O)C(=O)O)OCc1ccccc1 = inactive
• Oc1ccc(O)c(CNc2ccc(C(O)C(F)(F)F)cc2)c1 (stereo not given) = inactive
• Cc1sc2ccccc2[n+]1CCC(=O)O = inactive
• O=C(Nc1ccc(Cl)cc1)C(Cl)C(Cl)c1ccc(Cl)cc1 (stereo not given) = inactive
